SYSTEM_NAME: mouse NMUR2 (mouse, UniProt Q8BZ39 1-395)
Sequence (Q8BZ39 whole entry): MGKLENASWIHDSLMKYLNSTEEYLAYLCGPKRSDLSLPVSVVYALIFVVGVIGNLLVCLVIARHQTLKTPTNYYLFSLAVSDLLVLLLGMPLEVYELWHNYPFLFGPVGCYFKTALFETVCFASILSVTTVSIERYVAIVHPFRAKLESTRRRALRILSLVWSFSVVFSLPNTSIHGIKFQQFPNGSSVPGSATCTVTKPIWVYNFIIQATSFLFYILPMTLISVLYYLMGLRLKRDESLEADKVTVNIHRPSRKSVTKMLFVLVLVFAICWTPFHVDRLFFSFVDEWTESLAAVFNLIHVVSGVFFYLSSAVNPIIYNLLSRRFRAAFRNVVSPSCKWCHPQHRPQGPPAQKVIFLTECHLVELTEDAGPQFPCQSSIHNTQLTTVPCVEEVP
EXPERIMENT_NOTES: cell-based or functional assay
Non-standard residues stand in square brackets, D forms with d. No end group written: not given here. *: point of attachment. (PEG)2 40 kDa = branched PEG of 40 kDa linked via the Cys side-chain thiol (code C2 = Cys(PEG)2 40 kDa); Cholesteroyl = cholesterol linked to a cysteine residue via the side-chain thiol; Succinimide(1-Et,3-yl) = CCN1C(=O)CC(*)C1=O; Palmitoyl = CCCCCCCCCCCCCCCC(=O)*
OUTCOME_MEASURE: % Activity (FLIPR) (%)

BINDER	READOUT_UNITS	NUMERIC_RESULT
Ac-C((PEG)2 40 kDa)FQSPFASQSRGYFLFRPRN-NH2 [NMU20]	%	100
GYFLFRPRN-NH2 [NMU3]	%	100
Ac-C((PEG)2 40 kDa)FRVDEEFQSPFASQSRGYF[dA]WRPRN-NH2 [NMU14]	%	0
Ac-C(Cholesteroyl)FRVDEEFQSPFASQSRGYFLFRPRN-NH2 [NMU10]	%	70.5
Ac-C(Succinimide(1-Et,3-yl))ASQSRGYFLFRPRN-NH2 (SMILES CCN1C(=O)CC(SC[C@H](NC(C)=O)C(=O)N[C@@H](C)C(=O)N[C@@H](CO)C(=O)N[C@@H](CCC(N)=O)C(=O)N[C@@H](CO)C(=O)N[C@@H](CCCNC(=N)N)C(=O)NCC(=O)N[C@@H](Cc2ccc(O)cc2)C(=O)N[C@@H](Cc2ccccc2)C(=O)N[C@@H](CC(C)C)C(=O)N[C@@H](Cc2ccccc2)C(=O)N[C@@H](CCCNC(=N)N)C(=O)N2CCC[C@H]2C(=O)N[C@@H](CCCNC(=N)N)C(=O)N[C@@H](CC(N)=O)C(N)=O)C1=O) [NMU17]	%	100
Ac-C((PEG)2 40 kDa)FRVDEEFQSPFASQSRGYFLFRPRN-NH2 [NMU12]	%	94.1
Ac-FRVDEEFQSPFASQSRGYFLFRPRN-NH2 [NMU2]	%	100
Ac-C(PEG 20 kDa)C(PEG 20 kDa)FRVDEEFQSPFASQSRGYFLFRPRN-NH2 [NMU23]	%	100
Palmitoyl-C((PEG)2 40 kDa)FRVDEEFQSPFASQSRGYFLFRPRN-NH2 [NMU25]	%	100
Ac-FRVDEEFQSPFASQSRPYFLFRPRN-NH2 [NMU5]	%	100
